- measuredOn: CFTR (Homo sapiens, UniProt P13569)
- Sequence (P13569 whole entry): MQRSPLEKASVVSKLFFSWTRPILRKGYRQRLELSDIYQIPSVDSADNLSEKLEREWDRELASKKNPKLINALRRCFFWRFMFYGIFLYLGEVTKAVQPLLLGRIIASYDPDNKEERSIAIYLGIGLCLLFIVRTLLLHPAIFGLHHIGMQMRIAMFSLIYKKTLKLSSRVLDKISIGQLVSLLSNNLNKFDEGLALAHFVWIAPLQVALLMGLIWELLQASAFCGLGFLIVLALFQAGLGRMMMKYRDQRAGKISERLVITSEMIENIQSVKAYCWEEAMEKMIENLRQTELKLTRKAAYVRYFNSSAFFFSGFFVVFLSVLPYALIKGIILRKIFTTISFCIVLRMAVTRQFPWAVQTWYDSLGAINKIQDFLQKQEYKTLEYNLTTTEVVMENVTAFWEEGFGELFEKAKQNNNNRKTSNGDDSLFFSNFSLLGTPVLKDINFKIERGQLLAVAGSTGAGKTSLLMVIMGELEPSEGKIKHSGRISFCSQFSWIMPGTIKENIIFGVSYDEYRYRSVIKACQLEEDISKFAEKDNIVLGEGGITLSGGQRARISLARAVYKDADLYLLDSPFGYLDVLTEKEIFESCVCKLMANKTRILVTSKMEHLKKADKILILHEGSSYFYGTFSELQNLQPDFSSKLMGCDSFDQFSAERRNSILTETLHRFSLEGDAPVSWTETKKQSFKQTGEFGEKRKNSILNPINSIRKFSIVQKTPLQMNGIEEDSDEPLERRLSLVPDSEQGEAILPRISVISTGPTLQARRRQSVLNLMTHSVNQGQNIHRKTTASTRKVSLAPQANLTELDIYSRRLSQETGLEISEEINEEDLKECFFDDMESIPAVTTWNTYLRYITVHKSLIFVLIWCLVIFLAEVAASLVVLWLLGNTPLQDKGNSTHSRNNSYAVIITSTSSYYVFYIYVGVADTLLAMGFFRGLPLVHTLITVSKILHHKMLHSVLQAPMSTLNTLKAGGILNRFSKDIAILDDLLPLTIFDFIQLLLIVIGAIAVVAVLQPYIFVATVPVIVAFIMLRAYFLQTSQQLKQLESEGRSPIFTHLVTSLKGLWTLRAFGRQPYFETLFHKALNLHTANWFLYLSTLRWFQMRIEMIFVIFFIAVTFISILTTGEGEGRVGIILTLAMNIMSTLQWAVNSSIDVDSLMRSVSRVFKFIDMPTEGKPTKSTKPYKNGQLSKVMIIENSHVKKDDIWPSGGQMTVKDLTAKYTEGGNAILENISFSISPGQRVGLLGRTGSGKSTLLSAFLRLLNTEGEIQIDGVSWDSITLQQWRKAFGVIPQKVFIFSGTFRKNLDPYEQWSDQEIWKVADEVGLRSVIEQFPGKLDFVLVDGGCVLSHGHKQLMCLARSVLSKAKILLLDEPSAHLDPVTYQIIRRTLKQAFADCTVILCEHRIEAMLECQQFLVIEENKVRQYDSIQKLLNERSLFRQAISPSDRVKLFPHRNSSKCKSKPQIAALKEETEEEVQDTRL
- protocolNotes: T84 assay (FLIPR membrane potential, forskolin/IBMX-stimulated CFTR channel activity)
- conditionSet: Human colonic T84 cells; average of at least 2 runs unless annotated n = 1
Catalogue of IC50 readings, one per entry.
reportedMetric: IC50 (µM)

>>> quantitativeresult("O=C(Cc1ccccn1)N1CCN(c2cc(-c3cc(Cl)c(O)c(Cl)c3)nnc2OCCc2ccc(Cl)cc2)CC1 [Compound 3]")
18.1
>>> quantitativeresult("CCN(Cc1ccccc1)C(=O)c1cc(-c2cc(Cl)c(O)c(Cl)c2)nnc1OCCc1ccc(Cl)cc1 [Compound 27]")
17
>>> quantitativeresult("Oc1c(Cl)cc(-c2cc(N3CCN(Cc4ccc(OCCCN5CCC(F)(F)CC5)cc4)CC3)c(OCCc3ccc(Cl)cc3)nn2)cc1Cl [Compound 18]")
7.5
>>> quantitativeresult("COc1ccc(CN(CCO)C(=O)c2cc(-c3cc(Cl)c(O)c(Cl)c3)nnc2OCCc2ccc(Cl)cc2)cc1 [Compound 31]")
25.2
>>> quantitativeresult("NC(=O)C1CCN(CCCOc2ccc(CN3CCN(c4cc(-c5cc(Cl)c(O)c(Cl)c5)nnc4OCCc4ccc(Cl)cc4)CC3)cc2)CC1 [Compound 21]")
7.33
>>> quantitativeresult("CCCN(CCO)C(=O)c1cc(-c2cc(Cl)c(O)c(Cl)c2)nnc1OCCc1ccc(Cl)cc1 [Compound 13]")
28.6
>>> quantitativeresult("CS(=O)(=O)Nc1ccc(CNC(=O)c2cc(-c3cc(Cl)c(O)c(Cl)c3)nnc2OCCc2ccc(Cl)cc2)cc1 [Compound 4]")
17.5

###

- measuredOn: CFTR (Homo sapiens, UniProt P13569)
- protocolNotes: T84 assay (FLIPR membrane potential, forskolin/IBMX-stimulated CFTR channel activity)
- conditionSet: Human colonic T84 cells; average of at least 2 runs unless annotated n = 1
Catalogue of IC50 readings, one per entry.
reportedMetric: IC50 (µM)

>>> quantitativeresult("Oc1c(Cl)cc(-c2cc(N3CCN(Cc4ccc(OCCN5CCOCC5)cc4)CC3)c(OCCc3ccc(Cl)cc3)nn2)cc1Cl")
9.45
>>> quantitativeresult("O=C(c1cc(-c2cc(Cl)c(O)c(Cl)c2)nnc1OCCc1ccc(Cl)cc1)N(CCO)Cc1ccccc1Cl")
10.3
>>> quantitativeresult("O=C(NCc1cc(F)c(F)c(F)c1)c1cc(-c2cc(Cl)c(O)c(Cl)c2)nnc1OCCc1ccc(Cl)cc1")
8.06
>>> quantitativeresult("CN(Cc1ccccc1)C(=O)c1cc(-c2cc(Cl)c(O)c(Cl)c2)nnc1OCCc1ccc(Cl)cc1")
10.2
>>> quantitativeresult("COc1ccc(CN(CCO)C(=O)c2cc(-c3cc(Cl)c(O)c(Cl)c3)nnc2OCCc2ccc(Cl)cc2)cc1OC")
13.7
>>> quantitativeresult("CN(C)CCCOc1cccc(CN2CCN(c3cc(-c4cc(Cl)c(O)c(Cl)c4)nnc3OCCc3ccc(Cl)cc3)CC2)c1")
9.85
>>> quantitativeresult("CN1CCN(CCOc2ccc(CN3CCN(c4cc(-c5cc(Cl)c(O)c(Cl)c5)nnc4OCCc4ccc(Cl)cc4)CC3)cc2)CC1")
13.2
